Tested on: MCF7
TEST PROTOCOL: Antiproliferative activity against human MCF7 cells after 48 hrs by MTT assay
Assay type: functional
EXPERIMENTAL CONTEXT: MCF7, 48 h
Measured GI50 accompanies every entry in the list below.
Unit µM implied. Number only.

COc1cc(C2C3=C(COC3=O)Nc3c2ccc2ccc(O)cc32)cc(OC)c1OC (racemic)	0.003
O=C1OCC2=C1C(c1cc(Br)cc(Br)c1O)c1cn[nH]c1N2 (racemic)	0.01
O=C1OCC2=C1[C@H](c1cc(Br)cc(Br)c1)c1ccc3ccccc3c1N2	0.009
O=C1OCC2=C1C(c1cc(Br)cc(Br)c1O)c1ccc3ccccc3c1N2 (racemic)	0.021

Lab book: GI50 of COc1cc(Br)cc(C2C3=C(COC3=O)Nc3[nH]ncc32)c1O (racemic) noted as 0.03

Lab book: GI50 of COc1cc(C2C3=C(COC3=O)Nc3[nH]nc(C)c32)cc(Br)c1OC (racemic) noted as 1

Lab book: GI50 of COc1cc(Br)cc(C2C3=C(COC3=O)Nc3c2ccc2ccccc32)c1O (racemic) noted as 0.003

Lab book: GI50 of COc1cc(C2C3=C(COC3=O)Nc3nc(SC)nc(N)c32)cc(OC)c1OC (racemic) noted as 0.17

Lab book: GI50 of COc1cccc(C2C3=C(COC3=O)Nc3[nH]ncc32)c1O (racemic) noted as 0.5

Lab book: GI50 of Cc1n[nH]c2c1C(c1cc(Br)ccc1O)C1=C(COC1=O)N2 (racemic) noted as 0.25
